Kindly state Activity for each of the entries shown.
Test system: Bacteroides caccae
Experiment: Antimicrobial activity against Bacteroides caccae assessed as percent resistant isolates
Type: functional
Number plus unit, in that order.

Task: Param item = C[C@@H](O)[C@H]1C(=O)N2C(C(=O)O)=C(S[C@@H]3CN[C@H](C(=O)N(C)C)C3)[C@H](C)[C@H]12 ; retrieve measured Activity.
Output: 0.5%

Task: Param item = COC1(NC(=O)Cc2cccs2)C(=O)N2C(C(=O)O)=C(COC(N)=O)CS[C@@H]21 (single isomer, unassigned) ; retrieve measured Activity.
Output: 10.9%

Task: Param item = C[C@@H](O)[C@H]1C(=O)N2C(C(=O)O)=C(SCCNC=N)C[C@H]12 [IMIPENEM ANHYDROUS] ; retrieve measured Activity.
Output: 0%
